- TESTED_TARGET: ERR1 (also known as ERR-α or ERR-1) (Homo sapiens)
- Sequence (P11474 193-421 limits assumed, species assumed): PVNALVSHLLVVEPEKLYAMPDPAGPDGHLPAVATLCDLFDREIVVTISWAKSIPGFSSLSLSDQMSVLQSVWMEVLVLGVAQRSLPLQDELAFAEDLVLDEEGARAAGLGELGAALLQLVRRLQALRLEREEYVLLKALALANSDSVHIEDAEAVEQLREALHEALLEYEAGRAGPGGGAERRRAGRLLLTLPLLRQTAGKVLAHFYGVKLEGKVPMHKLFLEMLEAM
- ASSAY: TR-FRET Assay (disruption of co-activator peptide binding to ERR1 LBD)
- CONDITION_DESCRIPTION: 6His-tagged ERR1 LBD 6 nM, GST-hSRC2 co-activator peptide 6 nM; 25° C., 4-18 hours; average of 3 independent experiments
pEC50: −log10 of the molar value.
I would appreciate it if you labelled entries met when pEC50 is 7 or higher, otherwise not met.

> print(dat)
                                   compound                             tested.target  answer.label
1  COc1cc(/C=C2\SC(=O)N(CCN(C)C)C2=O)ccc1Oc1ccc(C#N)cc1C(F)(F)F [Compound 2]  ERR1 (also known as ERR-α or ERR-1) (Homo sapiens)           met
2  COc1cc(/C=C2\SC(=O)N(CCN3CCCC3)C2=O)ccc1Oc1ccc(C#N)cc1C(F)(F)F [Compound 3]  ERR1 (also known as ERR-α or ERR-1) (Homo sapiens)           met
3  COc1cc(/C=C2\SC(=O)N(CCn3cncn3)C2=O)ccc1Oc1ccc(C#N)cc1C(F)(F)F [Compound 11]  ERR1 (also known as ERR-α or ERR-1) (Homo sapiens)           met
4  CCN(CC)CCN1C(=O)S/C(=C\c2ccc(Oc3ccc(C#N)cc3C(F)(F)F)c(OC)c2)C1=O [Compound 7]  ERR1 (also known as ERR-α or ERR-1) (Homo sapiens)           met
5  CN(C)CCN1C(=O)S/C(=C\c2ccc(Oc3ccc(C#N)cc3C(F)(F)F)c(F)c2)C1=O [Compound 5]  ERR1 (also known as ERR-α or ERR-1) (Homo sapiens)       not met
6  COc1cc(/C=C2\SC(=O)N(CCN3CCCCCC3)C2=O)ccc1Oc1ccc(C#N)cc1C(F)(F)F [Compound 12]  ERR1 (also known as ERR-α or ERR-1) (Homo sapiens)           met

Origin of values: patent US8119669B2
